- ASSAY: NCI Yeast Anticancer Drug Screen. Data for the mec2-1 strain (AID 157)
- CONDITION: S. cerevisiae mec2-1 strain; at 50.0 µM unless noted
- Experimental: Growth inhibition of yeast strains with defined genetic alterations is measured as a screen for potential anti-cancer activity. Selected strains with alterations in DNA damage repair or cell cycle control were exposed to compounds and growth inhibition was measured relative to vehicle treated controls. The strain used in this assay is mec2-1
About 79,000 compounds went through this panel and 15% of them were active in at least one assay; those are over-represented in the sample as a whole. The source made the active and inactive calls. No stated cut-off is given here; in the data, active means growth inhibition above about 70%; inactive means the rest.
Select the matching outcome among active, inactive

Recorded test call requested for C[n+]1c(/C=C\C=C\c2ccccc2)sc2ccccc21 inactive

Recorded test call requested for COC(=O)C1CC2(CCC1=O)Cc1ccccc1C2=O (configuration not stated) inactive

Recorded test call requested for CC1=Cc2cccc(C)c2C(=O)C1=O active

Recorded test call requested for COc1ccc(C)cc1Sc1ccc([N+](=O)[O-])cc1C inactive

Recorded test call requested for Cc1ccc(S(=O)(=O)n2cc(C#N)c(C#N)c2)cc1 inactive

Recorded test call requested for COc1cc2ccc(Cc3nccc4cc(OC)c(OC)cc34)cc2cc1OC active

Recorded test call requested for Cc1ccc(C(=O)C2C(=O)C(=O)OC2C2OC(=O)C(=O)C2C(=O)c2ccc(C)cc2)cc1 (configuration not stated) inactive

Recorded test call requested for CCC(O)C(C)(C)[N+](=O)[O-] (configuration not stated) inactive

Recorded test call requested for CCC(C(N)=O)c1ccccc1 (configuration not stated) inactive

Recorded test call requested for C=CC[N+]1(CCOC(=O)C(c2ccccc2)C2C=CCC2)CCCC1 (configuration not stated) inactive

Recorded test call requested for COc1ccc(NC(=S)N/N=C(\C)c2ccccn2)cc1 active

Recorded test call requested for CCCc1ccc(C)c(Br)c1 inactive

Recorded test call requested for CCCCCCCCCCCCN1CCCC(O)C1 (configuration not stated) inactive

Recorded test call requested for OC1c2ccccc2C2c3ccccc3C1C2Cl (configuration not stated) inactive

Recorded test call requested for Cc1nc(-c2ccc(N=Cc3ccc(N4CCC5(CCCCC5)CC4)cc3)cc2)cs1 inactive

Recorded test call requested for O=C(CCCCCCCC(=O)NO)NO inactive

Recorded test call requested for Cc1ccc(NC(=S)N2CCCC(C)C2)cc1C (configuration not stated) inactive

Recorded test call requested for Nc1cccc2c1nc(NCCO)c1ccccc12 inactive

Recorded test call requested for N=C(N)C1CN(CC=O)C(=O)NC1=O (configuration not stated) inactive

Recorded test call requested for Cc1c2n(c(=O)[nH]c1=O)C1OC(CO)C(O2)C1N=[N+]=[N-] (configuration not stated) inactive

Recorded test call requested for C=CCC(O)CCCCC (configuration not stated) inactive

Recorded test call requested for O=[N+]([O-])c1cccc(/C=C/c2ccnc3ccccc23)c1 inactive

Recorded test call requested for C=CCN(CC=C)C(=O)Nc1cccc(C)c1 inactive

Recorded test call requested for Cc1cc(C)c(C(=O)Cc2ccccc2)c(C)c1 inactive

Recorded test call requested for CC(C)N(C(=O)c1ccc(C(=O)N(c2ccccc2)C(C)C)cc1)c1ccccc1 inactive

Recorded test call requested for COC(=O)C1(C)CCCC2(C)C1CCC1(O)C(O)C(C(C)C)=CCC21 (configuration not stated) inactive

Recorded test call requested for COc1ccc(COC(=O)Nc2ccccc2F)c(OC)c1OC inactive

Recorded test call requested for CCC(CC)C(=O)NCCNC(=O)C(CC)CC inactive

Recorded test call requested for CC(C(C#N)C(N)=O)C(C#N)C(N)=O (configuration not stated) inactive

Recorded test call requested for OCC1C(CO)C2CC1C1N=NN(c3ccccc3)C21 (configuration not stated) inactive

Recorded test call requested for CC1(CO)COC(C)(C)OC1 inactive

Recorded test call requested for CC(=O)N1CCC(/C(C)=N/O)CC1 inactive

Recorded test call requested for NC1N=Nc2ccccc21 (configuration not stated) inactive

Recorded test call requested for O=C(O)c1ccc(Nc2c3ccccc3nc3ccccc23)cc1 inactive

Recorded test call requested for CCCCCCCCOC(=O)Nc1ccc(S(=O)(=O)NC2CCCCC2)cc1 inactive

Recorded test call requested for C=C1CC2(OC1=O)c1ccccc1C=Cc1ccccc12 inactive

Recorded test call requested for CN(CCO)CCCC1COc2ccccc2O1 (configuration not stated) inactive

Recorded test call requested for Clc1nc(NCCc2ccccc2)c2ncn(-c3ccccc3)c2n1 inactive

Recorded test call requested for Nc1ccc(OCc2ccccc2)cc1[N+](=O)[O-] inactive

Recorded test call requested for CCCCC(O)CCC (configuration not stated) inactive

Recorded test call requested for Cc1ccccc1C=NC12CC3CC(CC(C3)C1)C2 inactive

Recorded test call requested for CC(C)C1Oc2ccc(Br)cc2C1O (configuration not stated) inactive

Recorded test call requested for CCOc1ccc(NC(N)=O)cc1 inactive

Recorded test call requested for Cc1cc(C)nc(/N=C(/N)Nc2ccc(S(=O)(=O)NC(=O)Nc3ccccc3)cc2)n1 inactive

Recorded test call requested for SCCNCc1ccccc1 inactive

Recorded test call requested for O=C(N/N=C(\c1nc2ccc(Cl)cc2[nH]c1=O)C(O)c1ccccc1Cl)c1ccncc1 (configuration not stated) inactive

Recorded test call requested for CC1CCC(OC(=O)CCC2CCCCC2)CC1 (configuration not stated) inactive

Recorded test call requested for O=C1OCC/C1=C\c1ccc2c(c1)OCO2 inactive

Recorded test call requested for Cc1c(C)c(C)c(CCc2c(C)c(C)c(C)c(C)c2C)c(C)c1C inactive

Recorded test call requested for C=C(Br)CN(C#N)CC(=C)Br inactive

Recorded test call requested for CC(C)(C)OC(=O)NCC(=O)OC/C=C/c1ccccc1 inactive

Recorded test call requested for Cc1ccc(S(=O)(=O)OCC2C3C=CC(C4C=CC43)C2COS(=O)(=O)c2ccc(C)cc2)cc1 (configuration not stated) inactive

Where do these numbers come from? They come from PubChem BioAssay (NCI).
